# study-system: actKR (actinorhodin type II polyketide ketoreductase) (Streptomyces coelicolor, UniProt P16544, R177A)
# Sequence (P16544 whole entry R177A): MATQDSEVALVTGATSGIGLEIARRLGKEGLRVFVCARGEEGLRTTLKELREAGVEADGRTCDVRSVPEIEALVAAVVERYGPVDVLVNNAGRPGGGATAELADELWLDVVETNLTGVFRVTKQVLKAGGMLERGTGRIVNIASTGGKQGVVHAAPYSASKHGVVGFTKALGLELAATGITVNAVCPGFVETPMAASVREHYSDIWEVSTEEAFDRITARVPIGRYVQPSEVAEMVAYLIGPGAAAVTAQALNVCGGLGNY
# test-name: NADPH fluorescence titration
measured-parameter: Kd

Task: Any idea what Kd was measured for NC(=O)C1=CN([C@@H]2O[C@H](COP(=O)(O)OP(=O)(O)OC[C@H]3O[C@@H](n4cnc5c(N)ncnc54)[C@H](OP(=O)(O)O)[C@@H]3O)[C@@H](O)[C@H]2O)C=CC1 ?
Output: 1170 nM

###

# study-system: actKR (actinorhodin type II polyketide ketoreductase) (Streptomyces coelicolor, UniProt P16544, R93A)
# Sequence (P16544 whole entry R93A): as the sequence (P16544 whole entry R177A) above, with R93A, A177R counted along it
# test-name: NADPH fluorescence titration
measured-parameter: pKd
Scale for pKd: -log10 of concentration given in mol/L; no unit attached.

Task: Which pKd is reported for this compound? NC(=O)C1=CN([C@@H]2O[C@H](COP(=O)(O)OP(=O)(O)OC[C@H]3O[C@@H](n4cnc5c(N)ncnc54)[C@H](OP(=O)(O)O)[C@@H]3O)[C@@H](O)[C@H]2O)C=CC1
Output: 5.19

Values were extracted from paper PMC3855848.
